assay: chemical genetic growth profiling, strain panel (AID 1159580);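 also: tested at 20 µM; growth read once vehicle control cultures reached saturation at 30 °C; 1 = growth at the plate median or of vehicle wells; lower values mean less growth of the strain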; details: S. cerevisiae deletion strains, growth OD, locus YOR070C, strain gyp1
Out of some 5,500 compounds screened, about 2,000 (36%) were called active. Another 18% or so got no clear call; they are omitted. Rule as the data show it: active = normalized growth mostly below about 0.91 (no sharp cut-off); inconclusive = no clear call, values can overlap the other calls; inactive = mostly above about 0.92. This is one part of the list.
API: response.call in yes (1) = active, no (0) = inactive

Some solved cases for reference:
{"Molecule": "CC(C)=CCc1c2c(c3occ(-c4ccc(O)c(O)c4)c(=O)c3c1O)C=CC(C)(C)O2", "Label Class": "no (0)"}
{"Molecule": "C/C=C\\C1=C(C(=O)O)N2C(=O)C(NC(=O)C(N)c3ccc(O)cc3)C2SC1 (stereo not given)", "Label Class": "no (0)"}
{"Molecule": "CC(Cc1cccc(C(F)(F)F)c1)NCCOC(=O)c1ccccc1 (stereo not given)", "Label Class": "no (0)"}

Dear all, I need the recorded test outcome for O=C(OOC(=O)c1ccccc1)c1ccccc1 , thank you.
no (0)

Dear all, I need the recorded test outcome for Nc1ccc(S(=O)(=O)NC(=O)c2ccccc2)cc1 , thank you.
no (0)

Dear all, I need the recorded test outcome for O=C(CC(=O)c1ccccc1)c1ccccc1 , thank you.
yes (1)

Dear all, I need the recorded test outcome for O=P1(N(CCCl)CCCl)NCCCO1 (stereo not given) , thank you.
no (0)

Dear all, I need the recorded test outcome for CCN(CC)CCOCCOC(=O)C1(c2ccccc2)CCCC1 , thank you.
no (0)

Dear all, I need the recorded test outcome for CCN1CCN(C(=O)NC(C(=O)N[C@@H]2C(=O)N3[C@@H]2SC(C)(C)[C@@H]3C(=O)O)c2ccccc2)C(=O)C1=O (stereo not given in full) , thank you.
no (0)

Dear all, I need the recorded test outcome for CC(=O)O[C@@H]1CC2C(C)(C)C(=O)C=C[C@]2(C)C2CC[C@]3(C)C(=CC(=O)O[C@H]3c3ccoc3)[C@@]21C (stereo not given in full) , thank you.
no (0)

Dear all, I need the recorded test outcome for O=C(NCO)c1cccnc1 , thank you.
no (0)

Dear all, I need the recorded test outcome for CCN(CC)CCOC(=O)C1(C2CCCCC2)CCCCC1 , thank you.
no (0)

Dear all, I need the recorded test outcome for COc1cc(C/C=C/c2ccccc2)c(OC)cc1O , thank you.
no (0)

Dear all, I need the recorded test outcome for NC(=O)NC(=O)Cc1ccccc1 , thank you.
no (0)

Dear all, I need the recorded test outcome for CC(=O)O[C@@H]1C=C[C@@]2(C)C(C[C@@H](OC(C)=O)[C@@]3(C)C4=CC(=O)O[C@@H](c5ccoc5)[C@]4(C)CCC23)C1(C)C (stereo not given in full) , thank you.
no (0)

###

assay: chemical genetic growth profiling, strain panel (AID 1159580); settings: S. cerevisiae deletion strains, growth OD, locus YJL115W, strain asf1, active compounds read low
Screen size: about 5,500 compounds; about 2,000 (36%) were called active. About 18% were inconclusive and are not listed. The list shows a part of the results.
Metric Name: normalized growth

Consider the reported normalized growth for these molecules:
{"Molecule": "C=C1c2c(Cl)ccc(O)c2C(O)=C2C(=O)[C@]3(O)C(O)=C(C(N)=O)C(=O)[C@@H](N(C)C)[C@@H]3[C@@H](O)[C@H]12", "Observed": "0.979 (inactive)"}
{"Molecule": "N=C(N)N", "Observed": "0.99 (inactive)"}
{"Molecule": "CC(C)CCCC(C)[C@H]1CCC2C3CC=C4CC(=O)CC[C@]4(C)C3CC[C@@]21C (stereo not given in full)", "Observed": "0.974 (inactive)"}
{"Molecule": "CN(C)[C@@H]1C(=O)C(C(=O)NCN2CCCC2)=C(O)[C@@]2(O)C(=O)C3=C(O)c4c(O)cccc4[C@@](C)(O)[C@H]3C[C@@H]12", "Observed": "1.01 (inactive)"}

Now consider the entry below.
Item: Cc1cc(=O)oc2cc(O)cc(O)c12 | normalized growth: 0.958 (inactive)

###

assay: chemical genetic growth profiling, strain panel (AID 1159580); settings: S. cerevisiae deletion strains, growth OD, locus YML070W, strain DAK1
In all, about 5,500 compounds went through this assay and about 2,000 (36%) were called active. About 18% were inconclusive and are not listed. No stated cut-off is given here; in the data, active means normalized growth mostly below about 0.91 (no sharp cut-off); inconclusive means no clear call, values can overlap the other calls; inactive means mostly above about 0.92. Some of the results follow.
API: response.call in yes (1) (active), no (0) (inactive)

Some solved cases for reference:
{"Compound": "O=C1c2cccc3c(Sc4ccccc4)ccc(c23)C(=O)N1NCCO", "Label Class": "no (0)"}
{"Compound": "COc1c(Br)csc1C(=O)O/N=C(/N)c1cc(C(F)(F)F)cc(C(F)(F)F)c1", "Label Class": "no (0)"}
{"Compound": "Cc1cc(/C(N)=N\\OC(=O)C(C)(C)C)cc(/C(N)=N\\OC(=O)C(C)(C)C)c1", "Label Class": "no (0)"}
{"Compound": "Clc1ccc(CN2CCN(c3cccc4[nH]ccc34)CC2)cc1Cl", "Label Class": "no (0)"}

Dear all, I need the recorded test outcome for N#CSCC(=O)c1ccccc1 , thank you.
yes (1)

###

assay: chemical genetic growth profiling, strain panel (AID 1159580);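 also: tested at 20 µM; growth read once vehicle control cultures reached saturation at 30 °C; 1 = growth at the plate median or of vehicle wells; lower values mean less growth of the strain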; conditions: S. cerevisiae deletion strains, growth OD, locus YJR043C, strain POL32, active compounds read low
In all, about 5,500 compounds went through this assay and about 2,000 (36%) were called active. Roughly 18% stayed inconclusive and do not appear here. This is one part of the list.
Metric Name: normalized growth
Just the number, please, no unit attached.

Consider the reported normalized growth for these compounds:
{"Compound": "COc1c(Br)cc(/C(N)=N\\OC(=O)c2c(-c3c(Cl)cccc3Cl)noc2C)cc1Br", "Metric Name": "normalized growth", "Observed": 1.01}
{"Compound": "O=C1NC2CC2N1C(=O)OCc1ccccc1 (stereo unspecified)", "Metric Name": "normalized growth", "Observed": 0.993}
{"Compound": "CC(N=C(NC#N)Nc1ccncc1)C(C)(C)C (stereo unspecified)", "Metric Name": "normalized growth", "Observed": 1.02}
{"Compound": "NC1=NCCN1CC(=O)O", "Metric Name": "normalized growth", "Observed": 0.98}
{"Compound": "OC[C@H]1O[C@@H](O[C@H]2[C@H](O)[C@@H](O)[C@@H](O)O[C@@H]2CO)[C@H](O)[C@@H](O)[C@@H]1O", "Metric Name": "normalized growth", "Observed": 1.02}
{"Compound": "Cn1c(CSc2ccccc2)n[nH]c1=S", "Metric Name": "normalized growth", "Observed": 0.978}
{"Compound": "CCN1CCN(C(=O)NC(C(=O)N[C@@H]2C(=O)N3[C@@H]2SC(C)(C)[C@@H]3C(=O)O)c2ccccc2)C(=O)C1=O (stereo partly specified)", "Metric Name": "normalized growth", "Observed": 0.994}
{"Compound": "OC[C@H]1O[C@@H](O[C@@H]2[C@@H](CO)O[C@](O)(CO)[C@H]2O)[C@H](O)[C@@H](O)[C@H]1O", "Metric Name": "normalized growth", "Observed": 1.02}

Item: CN(C)[C@@H]1C(=O)C(C(N)=O)=C(O)[C@@]2(O)C(=O)C3=C(O)c4c(O)ccc(Cl)c4[C@@H](O)[C@H]3C[C@@H]12 | normalized growth: 0.984

Item: O=C1NC(O)=NC1(c1ccccc1)c1ccccc1 | normalized growth: 1.01

Item: COc1ccc([C@@H]2CC(=O)c3c(O)cc(O[C@@H]4O[C@H](CO[C@H]5O[C@@H](C)[C@H](O)[C@@H](O)[C@H]5O)[C@@H](O)[C@H](O)[C@H]4O)cc3O2)cc1O | normalized growth: 1.01

Item: CNNC | normalized growth: 0.998

Item: O=C1c2ccccc2C(=O)N1CN(CCSc1ccccc1)CN1C(=O)c2ccccc2C1=O | normalized growth: 1.01

Item: N[C@@H](CCC(=O)N[C@@H](CS)C(=O)NCC(=O)O)C(=O)O | normalized growth: 0.992

Item: Fc1cc(F)cc(COc2cc(Cl)cc(Cl)c2)c1 | normalized growth: 0.985

###

assay: chemical genetic growth profiling, strain panel (AID 1159580);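 also: tested at 20 µM; growth read once vehicle control cultures reached saturation at 30 °C; 1 = growth at the plate median or of vehicle wells; lower values mean less growth of the strain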; conditions: S. cerevisiae deletion strains, growth OD, locus YLR221C, strain rsa3, active compounds read low
Among all 5,500 compounds or so, about 2,000 (36%) were called active. About 18% were inconclusive and are not listed. Some of the results follow.
Quick reference for normalized growth among some compounds
Just the number, please, no unit attached.

{"Compound": "CN(C)CCCN1c2ccccc2Sc2ccc(C(F)(F)F)cc21", "normalized growth": 0.977}
{"Compound": "O=C(O)c1ccc(S(=O)(=O)N(Cl)Cl)cc1", "normalized growth": 1.02}
{"Compound": "O=C(NCO)c1cccnc1", "normalized growth": 1.01}

Item: NC(=O)c1cccnc1 | normalized growth: 0.974

Item: Nc1ccc(C(=O)O)cc1 | normalized growth: 1.02

###

assay: chemical genetic growth profiling, strain panel (AID 1159580);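 also: tested at 20 µM; growth read once vehicle control cultures reached saturation at 30 °C; 1 = growth at the plate median or of vehicle wells; lower values mean less growth of the strain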; settings: S. cerevisiae deletion strains, growth OD, locus YKL068W, active compounds read low
Out of some 5,500 compounds screened, about 2,000 (36%) were called active. Inconclusive results (about 18%) are left out. The list shows a part of the results.
Metric Name: normalized growth
Just the number, please, no unit attached.

{"Compound": "NNCc1cccc(O)c1", "normalized growth": 0.98}

Item: CC(=O)c1cc(CC=C(C)C)c(O)c(CC=C(C)C)c1 | normalized growth: 0.969

Item: CCN1CCN(C(=O)NC(C(=O)N[C@@H]2C(=O)N3[C@@H]2SC(C)(C)[C@@H]3C(=O)O)c2ccccc2)C(=O)C1=O (stereo not given in full) | normalized growth: 1

Item: CC(C)CCCC(C)C1CC[C@@]2(C)C3=C(CC[C@]12C)[C@@]1(C)CC[C@H](O)C(C)(C)C1CC3 (stereo not given in full) | normalized growth: 1
